Entries and their glass transition temperature values follow.

[
  {
    "molecule": "*c1ccc(Oc2ccc(-c3cc(-c4ccccc4)c4cc5nc(*)cc(-c6ccccc6)c5cc4n3)cc2)cc1 (repeat unit)",
    "glass transition temperature / °C": 365.00
  },
  {
    "molecule": "*Oc1ccc(Oc2ccc(NC(=O)c3cccc(C(=O)Nc4ccc(*)cc4)c3)cc2)cc1C(C)(C)C (repeat unit)",
    "glass transition temperature / °C": 208.00
  },
  {
    "molecule": "*c1ccc(Oc2ccc(Oc3ccc(N4C(=O)c5cccc(Oc6cccc7c6C(=O)N(*)C7=O)c5C4=O)cc3)cc2)cc1 (repeat unit)",
    "glass transition temperature / °C": 260.50
  },
  {
    "molecule": "*Oc1cc(OC(=O)c2ccc(OCCCCCCCCCCCC)cc2)c(OC(=O)CCCC(*)=O)cc1OC(=O)c1ccc(OCCCCCCCCCCCC)cc1 (repeat unit)",
    "glass transition temperature / °C": 23.00
  },
  {
    "molecule": "*c1ccc(C(=O)OCCCCCCCCOc2ccc(/C=C3\\CCCC/C(=C\\c4ccc(OCCCCCCCCOC(=O)c5ccc(-c6nnc(*)o6)cc5)cc4)C3=O)cc2)cc1 (repeat unit)",
    "glass transition temperature / °C": 98.00
  },
  {
    "molecule": "*c1ccc(Oc2ccccc2N2C(=O)c3ccc(Oc4ccc5c(c4)C(=O)N(*)C5=O)cc3C2=O)cc1 (repeat unit)",
    "glass transition temperature / °C": 264.00
  },
  {
    "molecule": "*CC(COc1c(Cl)cc(C(C)(C)c2cc(Cl)c(O*)c(Cl)c2)cc1Cl)OC(C)=O (repeat unit)",
    "glass transition temperature / °C": 100.00
  }
]
